Molecular target: T1, BMP-10 (UniProt O95393 317-424)
T1 sequence (looked up): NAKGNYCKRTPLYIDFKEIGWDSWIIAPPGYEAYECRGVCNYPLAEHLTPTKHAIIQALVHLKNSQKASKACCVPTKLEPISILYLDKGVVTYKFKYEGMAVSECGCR
Experiment: SPR (Biacore 8K), Fc protein captured on anti-human IgG, ligand injected
Description: The Cytiva Biacore 8k was used to measure the kinetics of the interactions between the ActRII- and chimera-Fc proteins and Activin A/Activin B/growth differentiation factor 8 (GDF-8)/GDF-11/BMP-9/BMP-10. Series S CM4 Sensor Chips were immobilized with anti-human capture antibody using the reagents and protocol in the Biacore Human Antibody Capture Kit (GE Life Sciences). […] The data were analyzed using the Biacore Insight Evaluation Software.
Some binders, each annotated with its measured pKd.
Worth noting: pKd values are minus log10 of concentrations stated in mol/L.

Previously resolved entries follow.
pKd recorded for this binder, ActRIIB-B3 (SEQ ID NO: 112) chimera-Fc protein (Fc fusion, Tested as chimera-Fc protein; not shown: linker (if any) and Fc domain) GRGEAETRECIYYNANWELERTNQSGLERCEGEQDKRRHCFATWKNISGTIELVKKGCWLDDFNCYDRQECVATEENPQVYFCCCEGNFCNERFTHLPEAGGPEVTYEPPPTAPT , is 9.76

What the record says about ActRIIB-A8 (SEQ ID NO: 126) chimera-Fc protein (Fc fusion, Tested as chimera-Fc protein; not shown: linker (if any) and Fc domain) GRGEAETRECIYYNANWELERTNQSGLERCEGEQDKRLHCYASWRNSSGTIELVKKGCWLDDFNCYDRQECVATEENPQVYFCCCEGNFCNERFTHLPEMEVTQPTS : pKd is 10.53

# pKd (binder: ActRIIA-B4 (SEQ ID NO: 98) chimera-Fc protein (Fc fusion, Tested as chimera-Fc protein; not shown: linker (if any) and Fc domain) GAILGRSETQECLFFNANWEKDRTNQTGVEPCYGDKDKRRHCFATWKNISGTIELVKKGCWLDDINCYDRTDCVEKKDSPEVYFCCCEGNMCNEKFSYFPEMEVTQPTS ) is 10.34

Then there is this binder:
Form: binder = ActRIIB-B2 (SEQ ID NO: 111) chimera-Fc protein (Fc fusion, Tested as chimera-Fc protein; not shown: linker (if any) and Fc domain) GRGEAETRECIYYNANWELERTNQTGVEPCEGEQDKRLHCYASWRNSSGTIELVKKGCWLDDFNCYDRQECVATEENPQVYFCCCEGNFCNERFTHLPEAGGPEVTYEPPPTAPT ; pKd = 10.69
